FYI, the data here is from patent US20220025023A1.

target: T1, TDP-215 peptide (human); test: indirect ELISA, 8-mer peptide library, OD 405 nm
T1 construct: same ELISA method as for the biotinylated 15-mers
T1 peptide: GDVMDVFI
MEASURED ATTRIBUTE: binding result

BINDER	MEASURED ATTRIBUTE	OBSERVED
ACI-7062-401A2-Ab2 (antibody, IgG1, V domains shown, also called 401A2C6; clone 2) VH: DVQLVESGGGLVQPGGSRRLSCAASGFTFSRFGMHWVRQAPEKGLEWVAYIRSGSDIIYYADSVKGRFTISRDNPENTLFLQMTSLRSEDTAMYYCARSGTTVPFDYWGQGTSLTVSS VL: DIVMTQSPSSLAMSVGQKVTMSCKSSQSLLNSGDQKNYLAWYQQKPGQSPELLLYFASTRASGVPDRFIGSGSGTDFSLTISSVQAEDLADYFCQQHYSIPLTFGAGTKLELKR	binding result	binds
ACI-7062-416A11-Ab1 (antibody, IgG2a, V domains shown, also called 416A11B3; clone 18) VH: QVTLKESGPGILQSSQTLSLTCSFSGFSLSTYGIGVGWIRQPSGKGLEWLAHIWWNDNKYYNTALKSRLTISKDTSNNQVFLKIASVDTADAATYYCARVYGNLYYFGYWGQGTTLTVSS VL: DVLMTQTPLSLPVSLGDRASISCRSSQSIVHSSGNTYLEWYLQKPGQSPKLLIYKVSNRFSGVPDRFSGSGSGTDFTLKISRVEAEDLGVYYCFQGSRVPTFGAGTKLELKR	binding result	binds
ACI-7062-412E12-Ab1 (antibody, IgG1, V domains shown, also called 412E12A2; clone 10) VH: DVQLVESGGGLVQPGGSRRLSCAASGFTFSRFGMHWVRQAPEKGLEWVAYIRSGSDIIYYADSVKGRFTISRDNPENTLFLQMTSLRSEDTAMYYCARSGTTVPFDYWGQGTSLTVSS VL: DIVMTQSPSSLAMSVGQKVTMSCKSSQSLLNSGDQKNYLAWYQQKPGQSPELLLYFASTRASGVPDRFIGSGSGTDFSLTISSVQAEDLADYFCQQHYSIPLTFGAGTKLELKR	binding result	binds
